biological target: MERTK (UniProt Q12866); test: phosphorylation enrichment, bacterial display (enrichment ratio); higher = better substrate or ligand; peptides without Tyr show the background;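 further: 11-residue human phosphosite peptides and single-mutation variants displayed on the E. coli surface, counted by deep sequencing, each peptide's frequency after selection divided by its frequency in the unselected input library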;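 further: frequency after pTyr selection over input frequency; kinase dosed for 20-30% of maximal phosphorylation in three min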
Sequence (Q12866 whole entry, looked up): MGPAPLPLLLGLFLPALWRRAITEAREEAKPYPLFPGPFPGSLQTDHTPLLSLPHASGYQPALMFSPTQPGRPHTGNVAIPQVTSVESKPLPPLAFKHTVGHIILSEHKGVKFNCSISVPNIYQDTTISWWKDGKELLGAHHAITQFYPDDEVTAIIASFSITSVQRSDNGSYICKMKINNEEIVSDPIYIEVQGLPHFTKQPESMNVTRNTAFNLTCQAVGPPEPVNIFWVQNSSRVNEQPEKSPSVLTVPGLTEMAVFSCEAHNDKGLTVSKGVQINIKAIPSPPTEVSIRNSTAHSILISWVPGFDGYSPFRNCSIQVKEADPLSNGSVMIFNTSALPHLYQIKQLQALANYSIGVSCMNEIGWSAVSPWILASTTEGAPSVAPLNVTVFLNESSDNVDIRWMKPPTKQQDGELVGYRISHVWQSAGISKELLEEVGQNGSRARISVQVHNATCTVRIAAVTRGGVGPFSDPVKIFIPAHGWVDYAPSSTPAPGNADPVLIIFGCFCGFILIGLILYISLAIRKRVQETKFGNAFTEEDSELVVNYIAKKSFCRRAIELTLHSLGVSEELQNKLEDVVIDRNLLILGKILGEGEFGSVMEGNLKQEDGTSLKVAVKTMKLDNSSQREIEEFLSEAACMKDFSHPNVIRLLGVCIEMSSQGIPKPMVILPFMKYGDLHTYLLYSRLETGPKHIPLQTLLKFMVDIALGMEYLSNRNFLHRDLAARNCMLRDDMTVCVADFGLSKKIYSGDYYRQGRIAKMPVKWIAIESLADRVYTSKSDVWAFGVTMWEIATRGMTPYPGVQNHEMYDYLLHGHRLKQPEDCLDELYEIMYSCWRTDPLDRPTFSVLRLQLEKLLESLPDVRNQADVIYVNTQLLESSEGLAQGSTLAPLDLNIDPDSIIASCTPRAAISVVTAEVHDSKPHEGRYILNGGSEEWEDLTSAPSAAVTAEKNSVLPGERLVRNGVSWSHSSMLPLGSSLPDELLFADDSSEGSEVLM
phosphorylation enrichment values by entry
Keep it simple and answer with nothing but the number.

Worked cases, phosphorylation enrichment given:
{"columns": ["seq string", "recorded result"],
 "data": [
  ["HYPDVYAREQL [ALX3_Y181]", 0.494],
  ["TTKGSYSLFVR [HCK_Y180_S183Y_YF]", 0.45],
  ["IAKNPYDPPGR", 0.426]
]}

Ask: Reported phosphorylation enrichment, sequence ETKTPYTVILI [SBDS_Y128_R126T] : ____
Reply: 0.534

Ask: Reported phosphorylation enrichment, sequence PMQLPHDSTWE [PDGFRB_Y589_Y589H] : ____
Reply: 0.531

Ask: Reported phosphorylation enrichment, sequence ALPVFYAATIA [SLC20A2_Y187] : ____
Reply: 2.96

Ask: Reported phosphorylation enrichment, sequence EQQNMYRLKVL [ABCC6_Y372] : ____
Reply: 0.401

Ask: Reported phosphorylation enrichment, sequence FIGVTYKNKED [PDGFRA_Y993_E996K_YF] : ____
Reply: 0.386

Ask: Reported phosphorylation enrichment, sequence SSPVPYLSPET [TJP1_Y931] : ____
Reply: 0.409
